- assayProcedure: physchem
- measurementParameters: octan-1-ol/water, pH 7.4, LogD7.4

| compound | logD |
| --- | --- |
| NC1(C(=O)NC(CS(N)(=O)=O)c2ccc(Cl)cc2)CCN(c2ncnc3[nH]ccc23)CC1 (configuration not stated) | 2.2 |
| O=c1ncn2nc(Sc3ccc(F)cc3F)ccc2c1-c1c(Cl)cccc1Cl | 2.74 |
| COc1ccccc1C(=O)NCC12CC3CC(CC(C3)C1)C2 | 4.43 |
| CCOC(=O)c1cc2ccc(O)cc2oc1=O | 1.2 |
| COc1cc2c(Nc3ccc(Cl)cc3F)ncnc2cc1OCCCN1CCOCC1 | 3.4 |
| CC(C)c1nc2ccc(-c3ccc(F)cc3)cc2c(=O)n1C[C@H]1CCCN(C(C)C)C1 | 3.6 |
| NC(=O)c1ccc(=O)n(Cc2ccc(Cl)cc2Cl)c1 | 2.36 |
| CCN(C(=O)NCc1ccccc1)C1CCN(CCC(c2ccccc2)c2ccccc2)CC1 | 4 |
| O=c1[nH][nH]c(=O)c2c1[nH]c1cc(Cl)cc(Cl)c12 | 1.02 |
| CS(=O)(=O)c1ccc(C(=O)Nc2ccc(F)cc2)c[n+]1[O-] | 0.84 |
| Cc1cccc(C#Cc2ccccc2)n1 | 3.6 |
| CNC(=O)c1c(F)cccc1Nc1nc(Nc2cc3c(cc2OC)CCN3C(=O)CN(C)C)nc2[nH]ccc12 | 2.61 |
| Cc1cn(C2CCCN(Cc3cccc(Oc4ccccc4)c3)C2)c(=O)[nH]c1=O (configuration not stated) | 3.04 |
| Cc1cc2n[nH]c(=O)n2c2cc(-c3ccncc3)ccc12 | 2.29 |
| CC1(C)N=C(N)N=C(N)N1c1ccc(Oc2ccc(Cl)cc2)c(Cl)c1 | 0.79 |
| NC(=O)c1sc2nccc(Nc3ccccc3)c2c1N | 2.91 |
| N=C(N)SCc1ccc(Cl)c(Cl)c1 | 1.28 |
| CCC(NC(=O)c1ccc(C)cc1)c1nc2ccsc2c(=O)n1Cc1ccccc1 (configuration not stated) | 4.14 |
| CC(=O)c1ncccc1NC(=O)[C@H]1CC[C@H](N2C(=O)[C@@H]3[C@@H]4CC[C@@H](C4)[C@@H]3C2=O)CC1 | 3.01 |
| O=C(Nc1cccc(O)c1)c1ccc(OCCCN2CCCC2)cc1OCc1ccccc1 | 3.07 |
| CN1CCC(=C2c3ccccc3C=Cc3ccccc32)CC1 | 3.06 |
| Cc1ccc2c(-c3ccnc4cc(Cl)ccc34)c(C)n(CC(=O)O)c2c1 | 2.41 |
| COc1ccc2cc(CCC(C)=O)ccc2c1 | 3.06 |
| CC1=C(CC(=O)O)c2cc(F)ccc2/C1=C\c1ccc([S+](C)[O-])cc1 (configuration not stated) | -0.01 |
| C[C@H](NC1=NC(=O)[C@](C)(C(F)(F)F)S1)c1ccccc1F | 3.1 |
| CCCSc1nc(N[C@@H]2C[C@H]2c2ccccc2)c2nnn([C@@H]3C[C@H](O)[C@@H](O)[C@H]3O)c2n1 | 3.97 |
| CC(C)Cn1c(=O)n(C)c(=O)c2c(C(=O)N3CC[C@@H](O)C3)c(Cc3cccc4ncccc34)sc21 | 1.98 |
| CC1=C(C)C(=O)C(C(CCCCCC(=O)O)c2ccccc2)=C(C)C1=O (configuration not stated) | 2.48 |
| NC(=O)c1cc(O)cc2nc(-c3ccc(O)cc3)oc12 | 2.3 |
| Cc1occc(=O)c1OCc1ccc(F)cc1 | 1.91 |
| CC[C@H](NC(=O)c1c(CS(C)(=O)=O)c(-c2ccccc2)nc2ccccc12)c1ccccc1 | 3.25 |
| Nc1nc2ccccc2n1C(=O)c1ccccc1 | 1.56 |
| Cc1cn([C@H]2CCCN([C@@H](C)c3ccc(C(=O)O)c(Oc4cccc(Cl)c4)c3)C2)c(=O)[nH]c1=O | -0.26 |
| CC(C)NNC(=O)c1ccncc1 | 0.33 |
| Cn1ncc2c(=O)[nH]c(-c3ccccc3)nc21 | 1.61 |
| CCN(C(=O)Cc1ccc(S(C)(=O)=O)cc1)C1CCN(CCC(c2ccccc2)c2ccc(NS(C)(=O)=O)cc2)CC1 (configuration not stated) | 1.84 |
| Cc1c(Sc2ccc(Cl)cc2)c2cc(Cl)ccc2n1Cc1nnn[nH]1 | 3.25 |
| Cc1cccc(C)c1NC(=O)C(C)N (configuration not stated) [TOCAINIDE] | -0.15 |
| N#Cc1ccc(-c2cc(NC(N)=O)c(C(=O)N[C@H]3CCCNC3)s2)cc1 | 0.61 |
| O=C(O)CC(=O)N[C@@H]1c2ccccc2C[C@H]1NC(=O)c1cc2sc(Cl)c(Cl)c2[nH]1 | 1.18 |
| COc1cc(C(=O)O)ccc1Cn1ccc2ccc(NC(=O)OC3CCCC3)cc21 | 2.1 |
| Cc1cn([C@H]2CCCN(Cc3ccc(C(=O)O)c(Oc4cccc(F)c4)c3)C2)c(=O)[nH]c1=O | -1.03 |
